Subject of test: T1, truncated hTfR1 of SEQ ID NO:122 (human, UniProt P02786 122-760)
T1 construct: also called human TfR1; Human TfR1
Measurement protocol: SPR follow-up, 4 replicates, FLAG-captured hTfR1, scFv injected
Property label: koff (s⁻¹)
# number only, unit s⁻¹ dropped from output

A selection of reference data follows.
Binder	koff / s⁻¹
h26D3 HC6 DS T91S S122K (scFv, also called h26D3 DS T91S S122K) scFv: HHHHHHGGGGSGGGGSGGGGSGGGGSDIQMTQSPSSVSASVGDRVTITCKSSQSLLYSTNQKNYLAWYQQKPGKAPKLLIYWASTRESGVPSRFSGSGSGTDFTLTISSLQPEDFATYYCQQYFIYPRTFGCGTKVEIKGGGGSGGGGSGGGGSGGGGSEVQLVQSGAEVKKPGSSVKVSCKASGYIFTDYNMDWVRQAPGQCLEWIGDINPDADTTSYNEKFKGRATLTVDKSTSTAYMELSSLRSEDSAVYYCARGGYSGSSYYHPMDYWGQGTLVTVKS	0.00463
h26D3 HC6 DS S122K (scFv, also called h26D3 DS S122K) scFv: HHHHHHGGGGSGGGGSGGGGSGGGGSDIQMTQSPSSVSASVGDRVTITCKSSQSLLYSTNQKNYLAWYQQKPGKAPKLLIYWASTRESGVPSRFSGSGSGTDFTLTISSLQPEDFATYYCQQYFIYPRTFGCGTKVEIKGGGGSGGGGSGGGGSGGGGSEVQLVQSGAEVKKPGSSVKVSCKASGYIFTDYNMDWVRQAPGQCLEWIGDINPDADTTSYNEKFKGRATLTVDKSTSTAYMELSSLRSEDTAVYYCARGGYSGSSYYHPMDYWGQGTLVTVKS	0.00482
h26D3 HC6 DS T91S T120K (scFv, also called h26D3 DS T91S T120K) scFv: HHHHHHGGGGSGGGGSGGGGSGGGGSDIQMTQSPSSVSASVGDRVTITCKSSQSLLYSTNQKNYLAWYQQKPGKAPKLLIYWASTRESGVPSRFSGSGSGTDFTLTISSLQPEDFATYYCQQYFIYPRTFGCGTKVEIKGGGGSGGGGSGGGGSGGGGSEVQLVQSGAEVKKPGSSVKVSCKASGYIFTDYNMDWVRQAPGQCLEWIGDINPDADTTSYNEKFKGRATLTVDKSTSTAYMELSSLRSEDSAVYYCARGGYSGSSYYHPMDYWGQGTLVKVSS	0.00465

What koff value was documented for this binder, h26D3 HC6 DS T120K (scFv, also called h26D3 DS T120K) scFv: HHHHHHGGGGSGGGGSGGGGSGGGGSDIQMTQSPSSVSASVGDRVTITCKSSQSLLYSTNQKNYLAWYQQKPGKAPKLLIYWASTRESGVPSRFSGSGSGTDFTLTISSLQPEDFATYYCQQYFIYPRTFGCGTKVEIKGGGGSGGGGSGGGGSGGGGSEVQLVQSGAEVKKPGSSVKVSCKASGYIFTDYNMDWVRQAPGQCLEWIGDINPDADTTSYNEKFKGRATLTVDKSTSTAYMELSSLRSEDTAVYYCARGGYSGSSYYHPMDYWGQGTLVKVSS ?
0.00478

What koff value was documented for this binder, h26D3 HC6 DS V11R T91A (scFv, also called h26D3 DS V11R T91A) scFv: HHHHHHGGGGSGGGGSGGGGSGGGGSDIQMTQSPSSVSASVGDRVTITCKSSQSLLYSTNQKNYLAWYQQKPGKAPKLLIYWASTRESGVPSRFSGSGSGTDFTLTISSLQPEDFATYYCQQYFIYPRTFGCGTKVEIKGGGGSGGGGSGGGGSGGGGSEVQLVQSGAERKKPGSSVKVSCKASGYIFTDYNMDWVRQAPGQCLEWIGDINPDADTTSYNEKFKGRATLTVDKSTSTAYMELSSLRSEDAAVYYCARGGYSGSSYYHPMDYWGQGTLVTVSS ?
0.00419

What koff value was documented for this binder, h26D3-HC6_DS, VL-first (scFv) scFv: DIQMTQSPSSVSASVGDRVTITCKSSQSLLYSTNQKNYLAWYQQKPGKAPKLLIYWASTRESGVPSRFSGSGSGTDFTLTISSLQPEDFATYYCQQYFIYPRTFGCGTKVEIKGGGGSGGGGSGGGGSGGGGSEVQLVQSGAEVKKPGSSVKVSCKASGYIFTDYNMDWVRQAPGQCLEWIGDINPDADTTSYNEKFKGRATLTVDKSTSTAYMELSSLRSEDTAVYYCARGGYSGSSYYHPMDYWGQGTLVTVSS ?
0.00439
